- Test system: H460 (lung carcinoma)
- Assay: Antiproliferative activity in vitro, MTT assay, 72 h
- Type: cell-based
- Experimental context: Homo sapiens, NCI-H460, 72 h incubation
pIC50: −log10 of the molar value.
Observable: pIC50

Completed entries (count: 3):
{"Compound string": "Cn1c(NC(=O)c2ccccc2O)nc2cc(C#N)ccc21", "Observed value": "< 4.00"}
{"Compound string": "O=C(Nc1nc2ccccc2n1-c1ccccc1)c1cc(O)c(O)c(O)c1", "Observed value": "< 4.00"}
{"Compound string": "Cn1c(NC(=O)c2cc(O)c(O)c(O)c2)nc2ccccc21", "Observed value": "< 4.00"}

Attention now shifts to the item below.
Qu. Look at this molecule and give its reported pIC50. "COc1ccc(C(=O)Nc2nc3ccccc3[nH]2)c(O)c1"
Ans. < 4.00
